I'd appreciate it if you could supply Post-emergence action against ABUTH in % values for the items below.
- System: Abutilon theophrasti (ABUTH)
- assay text: Post-emergence herbicidal action against ABUTH
- Format: in vivo
- protocol conditions: 320 g/ha, visual rating about 3 weeks after treatment vs untreated controls (100% = plants have died, 0% = like control plants)

Return Post-emergence action against ABUTH in % for the following molecule: `CCOC(=O)COc1nn(-c2nc(F)ccc2F)c(-c2ccc(F)nc2)c1Cl`
80%

Return Post-emergence action against ABUTH in % for the following molecule: `O=C(COc1nn(-c2ncccc2F)c(-c2ccc(F)nc2)c1C1CC1)OCC1CC1`
80%

Return Post-emergence action against ABUTH in % for the following molecule: `COCCOC(=O)COc1nn(-c2ncccc2C(F)(F)F)c(-c2cncc(F)c2)c1Br`
80%

Return Post-emergence action against ABUTH in % for the following molecule: `O=C(O)COc1nn(-c2nc(F)ccc2F)c(-c2ccc(F)nc2)c1Br`
80%

Return Post-emergence action against ABUTH in % for the following molecule: `O=C(O)CSc1nn(-c2ccccn2)c(-c2ccc(F)nc2)c1Br`
80%

Return Post-emergence action against ABUTH in % for the following molecule: `CC(=O)CNC(=O)COc1nn(-c2ccnc(F)c2)c(-c2ccc(F)nc2)c1Br`
80%

Return Post-emergence action against ABUTH in % for the following molecule: `CCOC(=O)COc1nn(-c2ncccc2C)c(-c2cncc(F)c2)c1Cl`
80%

Return Post-emergence action against ABUTH in % for the following molecule: `Cc1ncccc1-n1nc(OCC(=O)OCc2ccccn2)c(Br)c1-c1cncc(F)c1`
80%

Return Post-emergence action against ABUTH in % for the following molecule: `COC(=O)[C@@H](C)Oc1nn(-c2nc(F)ccc2F)c(-c2cncc(F)c2)c1C1CC1`
90%

Return Post-emergence action against ABUTH in % for the following molecule: `CCOC(=O)[C@@H](C)Oc1nn(-c2ncccc2F)c(-c2cncc(F)c2)c1Cl`
90%

Return Post-emergence action against ABUTH in % for the following molecule: `COC(=O)CSc1nn(-c2ccccn2)c(-c2cncc(F)c2)c1Br`
80%

Return Post-emergence action against ABUTH in % for the following molecule: `COC(=O)COc1nn(-c2ncccc2Cl)c(-c2ccc(F)nc2)c1Br`
90%

Return Post-emergence action against ABUTH in % for the following molecule: `O=C(O)COc1nn(-c2ccccn2)c(-c2ccc(F)nc2)c1F`
80%

Return Post-emergence action against ABUTH in % for the following molecule: `COC(=O)[C@@H](C)Oc1nn(-c2ncccc2F)c(-c2ccc(F)nc2)c1I`
90%

Return Post-emergence action against ABUTH in % for the following molecule: `C[C@@H](Oc1nn(-c2ncccc2F)c(-c2ccc(F)nc2)c1I)C(=O)O`
90%

Return Post-emergence action against ABUTH in % for the following molecule: `C#CCOC(=O)COc1nn(-c2ccccn2)c(-c2ccc(F)nc2)c1Br`
80%

Return Post-emergence action against ABUTH in % for the following molecule: `CCOC(=O)COc1nn(-c2cccc(C)n2)c(-c2ccc(F)nc2)c1Br`
80%

Return Post-emergence action against ABUTH in % for the following molecule: `CCOC(=O)[C@@H](C)Oc1nn(-c2ncccc2F)c(-c2cncc(F)c2)c1Br`
90%

Return Post-emergence action against ABUTH in % for the following molecule: `CCOC(=O)COc1nn(-c2nc(F)ccc2F)c(-c2cncc(F)c2)c1Br`
80%
